# Assay setup: Ebola virus entry assay, green fluorescence channel
Entries with a potency or affinity are not part of this list.
Short version: efficacy at least 20% is Fulfilled, less is Not fulfilled.

- Compound: "CCN(CC)CCOc1ccc(C(O)(Cc2ccc(Cl)cc2)c2ccc(C)cc2)cc1 (centres undefined)"
  Assigned category: "Not fulfilled"
- Compound: "CN(C)CC[C@@H](c1ccc(Cl)cc1)c1ccccn1"
  Assigned category: "Not fulfilled"
- Compound: "CC(C)(Oc1ccc(CCNC(=O)c2ccc(Cl)cc2)cc1)C(=O)O"
  Assigned category: "Not fulfilled"
- Compound: "CCN(CC)C(C)C(=O)c1ccccc1 (centres undefined)"
  Assigned category: "Not fulfilled"
- Compound: "CCOC(=O)c1ccc(OC(=O)CCCCCN=C(N)N)cc1"
  Assigned category: "Not fulfilled"
- Compound: "CCN(CC)CCCN(c1ccccc1)C1Cc2ccccc2C1"
  Assigned category: "Fulfilled"
- Compound: "O=C(CCl)c1ccc(Cl)cc1Cl"
  Assigned category: "Not fulfilled"
- Compound: "Fc1ccc(C(c2ccc(F)cc2)N2CCNCC2)cc1"
  Assigned category: "Fulfilled"
- Compound: "O=C(O)CCC(=O)c1ccc(-c2ccccc2)cc1"
  Assigned category: "Not fulfilled"
- Compound: "CC1=C(C(=O)OC(C)C)C(c2cccc([N+](=O)[O-])c2)C(C(=O)OC2CN(C(c3ccccc3)c3ccccc3)C2)=C(N)N1 (centres undefined)"
  Assigned category: "Not fulfilled"
- Compound: "CCOC(=O)c1c(N)sc2c1CCN(Cc1ccccc1)C2"
  Assigned category: "Fulfilled"
- Compound: "CN1CCCC(n2nc(Cc3ccc(Cl)cc3)c3ccccc3c2=O)CC1 (centres undefined)"
  Assigned category: "Fulfilled"
- Compound: "COC(=O)[C@H]1[C@H]2C[C@@H]3c4[nH]c5cc(OC)ccc5c4CCN3C[C@H]2C[C@@H](OC(=O)COc2ccc(OC)cc2)[C@@H]1OC"
  Assigned category: "Fulfilled"
- Compound: "CN1CCCN=C1COC(=O)C(O)(c1ccccc1)C1CCCCC1 (centres undefined)"
  Assigned category: "Fulfilled"
- Compound: "C/C=C(/C(=C/C)c1ccc(O)cc1)c1ccc(O)cc1"
  Assigned category: "Not fulfilled"
- Compound: "Cc1ccc(O)c(-n2nc3ccccc3n2)c1"
  Assigned category: "Fulfilled"
- Compound: "O=C(CS)Nc1ccccc1"
  Assigned category: "Fulfilled"
- Compound: "NC(=O)CC[C@@H](N)C(=O)O"
  Assigned category: "Not fulfilled"
- Compound: "COc1cc(OC)cc(OC)c1"
  Assigned category: "Not fulfilled"
- Compound: "O=C(OCC(COC(=O)c1cccnc1)(COC(=O)c1cccnc1)COC(=O)c1cccnc1)c1cccnc1"
  Assigned category: "Not fulfilled"
- Compound: "C[C@@]12CCC[C@H]1[C@@H]1CC[C@H]3C[C@@H](O)CC[C@]3(C)[C@H]1CC2"
  Assigned category: "Not fulfilled"
- Compound: "CCCCc1ccc2nc(NC(=O)OC)[nH]c2c1"
  Assigned category: "Not fulfilled"
- Compound: "COc1ccc(/C=C/C(=O)c2ccc(OC)cc2OC)cc1"
  Assigned category: "Fulfilled"

Where do the numbers come from? From PubChem BioAssay (NCATS).
